Assign Percent Effect to each entry below.
# System: Wolbachia pipientis
# Assay Info: Anti-Wolbachia Cell-Based Screen
# Format: functional
# Parameters: scale not given: in the data most compounds retested in dose-response had high values
# Applied Conditions: 5 µM
Out of some 48,000 compounds screened, about 13,000 (27%) showed an effect of 50% or more. The list shows a part of the results.
Reply with just the number (in %).

// query Entry CCC(C)(NCC(=O)NC(=O)NC)c1nccs1 (stereo unspecified) , system Wolbachia pipientis: what Percent Effect was measured?
// result 3.438

// query Entry CCn1cc(-c2cc(C(F)F)n3nc(CCC(=O)O)nc3n2)cn1 , system Wolbachia pipientis: what Percent Effect was measured?
// result 98.47

// query Entry CC(=O)Nn1c(C)cc(CN2CCCN(Cc3ccncc3)CC2)c1C , system Wolbachia pipientis: what Percent Effect was measured?
// result 19.43

// query Entry CCn1cc(-c2cc(C(F)F)n3nc(CC(=O)O)nc3n2)cn1 , system Wolbachia pipientis: what Percent Effect was measured?
// result 108.3

// query Entry Cn1cc(-c2csc(N3CCN(C(=O)OC(C)(C)C)CC3)n2)cn1 , system Wolbachia pipientis: what Percent Effect was measured?
// result 8.816

// query Entry Cn1ccc(C(=O)N2CCCC2c2ccc3c(c2)OCCO3)cc1=O (stereo unspecified) , system Wolbachia pipientis: what Percent Effect was measured?
// result 4.386

// query Entry O=C(c1ccc(=O)[nH]c1)N1CCCC2(C=Cc3ccccc3O2)CC1 (stereo unspecified) , system Wolbachia pipientis: what Percent Effect was measured?
// result -7.084

// query Entry Cn1cc(-c2csc(N3CCOCC3)n2)cn1 , system Wolbachia pipientis: what Percent Effect was measured?
// result -6.106

// query Entry CNc1cncc(C2CCCN2C(=O)c2ccc3oc(C)cc3c2)n1 (stereo unspecified) , system Wolbachia pipientis: what Percent Effect was measured?
// result 6.468

// query Entry CNc1cncc(C2CCCN2C(=O)c2ccc3c(c2)CCC3)n1 (stereo unspecified) , system Wolbachia pipientis: what Percent Effect was measured?
// result 112.1

// query Entry Cn1cc(-c2cc(C(F)F)n3nc(CCC(=O)O)nc3n2)cn1 , system Wolbachia pipientis: what Percent Effect was measured?
// result 133.7
